The reader will find reported melting point values listed item by item below.
reported_metric: melting point

- molecule: "CC(c1oc2ccccc2c(=O)c1-c1cccc(F)c1)n1nc(-c2ccc3cc(O)ccc3c2)c2c(N)ncnc21 (centres unmarked) [Example 162]"
  endpoint_result: "281 to 285 °C"
- molecule: "CC(c1oc2ccc(Br)cc2c(=O)c1-c1ccccc1)n1cnc2c(N)ncnc21 (centres unmarked) [Example 21]"
  endpoint_result: "230 to 231 °C"
- molecule: "Cc1c[nH]c2cc(-c3nn(C(C)c4oc5ccccc5c(=O)c4-c4cccc(F)c4)c4ncnc(N)c34)ccc12 (centres unmarked) [Example 117]"
  endpoint_result: "262 to 265 °C"
- molecule: "COc1c(C)cc(-c2nn(C(C)c3oc4ccccc4c(=O)c3-c3cccc(F)c3)c3ncnc(N)c23)cc1C (centres unmarked) [Example 131]"
  endpoint_result: "234 to 236 °C"
- molecule: "CC(c1oc2ccccc2c(=O)c1-c1ccccc1)n1ncc2c(N)ncnc21 (centres unmarked) [Example 30]"
  endpoint_result: "226 to 227 °C"
- molecule: "CC(c1oc2ccccc2c(=O)c1-c1cccc(F)c1)n1ncc2c(Cl)ccnc21 (centres unmarked) [Example 167]"
  endpoint_result: "173 to 176 °C"
- molecule: "COc1cccc(-c2nn(C(C)c3oc4ccccc4c(=O)c3-c3ccccc3)c3ncnc(N)c23)c1 (centres unmarked) [Example 41]"
  endpoint_result: "176 to 178 °C"
- molecule: "CC(c1oc2ccc(F)cc2c(=O)c1-c1ccccc1F)n1cnc2c(N)ncnc21 (centres unmarked) [Example 48]"
  endpoint_result: "245 to 248 °C"
- molecule: "CC(c1oc2ccccc2c(=O)c1-c1cccc(F)c1)n1nc(-c2csc(CO)c2)c2c(N)ncnc21 (centres unmarked) [Example 114]"
  endpoint_result: "154 to 156 °C"
- molecule: "COc1ccc2cc(-c3nn(C(C)c4oc5ccccc5c(=O)c4-c4cccc(F)c4)c4ncnc(N)c34)ccc2c1 (centres unmarked) [Example 172]"
  endpoint_result: "285 to 287 °C"
- molecule: "CC(c1oc2ccccc2c(=O)c1-c1cccc(F)c1)n1nc(-c2csc3ccccc23)c2c(N)ncnc21 (centres unmarked) [Example 173]"
  endpoint_result: "226 to 229 °C"
- molecule: "Nc1ncnc2c1ncn2Cc1oc2ccc(Br)cc2c(=O)c1-c1ccccc1F [Example 29]"
  endpoint_result: "231 to 233 °C"
- molecule: "C[C@H](Nc1ncnc2[nH]cnc12)c1oc2ccc(F)cc2c(=O)c1-c1cccc(F)c1 [Example 74]"
  endpoint_result: "203 to 206 °C"
- molecule: "Cc1n[nH]c2cc(-c3nn(Cc4oc5ccccc5c(=O)c4-c4cccc(F)c4)c4ncnc(N)c34)ccc12 [Example 99]"
  endpoint_result: "246 to 248 °C"
- molecule: "CC(c1oc2ccccc2c(=O)c1-c1cc(F)cc(F)c1)n1cnc2c(N)ncnc21 (centres unmarked) [Example 49]"
  endpoint_result: "267 to 269 °C"
- molecule: "O=c1c(-c2ccccc2F)c(CNc2ncnc3[nH]cnc23)oc2ccccc12 [Example 45]"
  endpoint_result: "143 to 147 °C"
- molecule: "C[C@H](Nc1ncnc2[nH]cnc12)c1oc2ccc(Br)cc2c(=O)c1-c1ccccc1 [Example 24]"
  endpoint_result: "151 to 154 °C"
- molecule: "O=c1c(-c2ccccc2)c(Cn2cnc3ccccc32)oc2ccccc12 [Example 7]"
  endpoint_result: "186 to 191 °C"
- molecule: "CC(c1oc2ccccc2c(=O)c1-c1cccc(F)c1)n1nc(-c2cc(O)cc(Cl)c2)c2c(N)ncnc21 (centres unmarked) [Example 86a]"
  endpoint_result: "122 to 124 °C"
- molecule: "Cc1nn(C)c2cc(-c3nn(C(C)c4oc5ccccc5c(=O)c4-c4cccc(F)c4)c4ncnc(N)c34)ccc12 (centres unmarked) [Example 170]"
  endpoint_result: "270 to 272 °C"
- molecule: "CCC(c1oc2ccccc2c(=O)c1-c1ccccc1F)n1cnc2c(N)ncnc21 (centres unmarked) [Example 35]"
  endpoint_result: "160 to 163 °C"
- molecule: "C[C@H](Nc1ncnc2[nH]cnc12)c1oc2ccccc2c(=O)c1-c1ccccc1 [Example 73]"
  endpoint_result: "135 to 138 °C"
- molecule: "C[C@@H](Nc1ncnc2[nH]cnc12)c1oc2ccc(F)cc2c(=O)c1-c1cccc(F)c1 [Example 124]"
  endpoint_result: "194 to 197 °C"

The origin of these recorded values is patent US9421209B2.
